Test system: RXF 393 renal
ASSAY DETAILS: NCI tumour cell line growth inhibition, 48 h
Where a SMILES comes first, the peptide text is derived from it. [ ]: non-standard residue; d: D form. The star is where a group is joined. ξ: configuration not given here. Cbz = O=C(OCc1ccccc1)*; ξK = NCCCCC(N)C(=O)O
In this section, each of the molecules is paired with its reported TGI.
EXPERIMENTAL READOUT: TGI

molecule=O=C([O-])c1ccc2c(c1)-c1nc-2nc2[n-]c(nc3nc(nc4[n-]c(n1)c1ccc(C(=O)[O-])cc41)-c1ccc(C(=O)[O-])cc1-3)c1ccc(C(=O)[O-])cc21.[Gd+3].[K+] measured_target="RXF 393 renal" result="> 100 µM"
molecule="NCCCCC(NC(=O)OCc1ccccc1)C(=O)NCC(N)=O (stereo not drawn) (Cbz-[ξK]-Gly-NH2)" measured_target="RXF 393 renal" result="> 100 µM"
molecule=OC(Cc1cccnc1)(c1ccccc1)c1ccccc1 measured_target="RXF 393 renal" result="> 100 µM"
molecule=CN(C)C=C1C(=O)N(C)C(=O)N(C)C1=O measured_target="RXF 393 renal" result="> 100 µM"
molecule=N#CC(C#N)=C/C=C(\Sc1ccc(F)c(Cl)c1)c1ccc(Cl)cc1 measured_target="RXF 393 renal" result="2.12 µM"
molecule=COC(=O)[C@@]12OC[C@]34[C@H]([C@@H](O)[C@@H]1O)[C@@]1(C)CC(=O)C(OC(C)=O)=C(C)[C@@H]1C[C@H]3OC(=O)[C@H](OC(=O)C=C(C)C)[C@@H]24 measured_target="RXF 393 renal" result="3.41 µM"
molecule=COc1ccc2c(c1)O[C@@H]1c3ccc(OC)cc3OC[C@H]21 measured_target="RXF 393 renal" result="51 µM"
molecule="O=P(O)(OP(=O)(O)c1ccccc1)c1ccccc1 (tested in a mixture with another compound)" measured_target="RXF 393 renal" result="> 100 µM"

---

Test system: NCI-H522 lung
ASSAY DETAILS: NCI tumour cell line growth inhibition, 48 h
EXPERIMENTAL READOUT: TGI (µM)

molecule="COc1ccc2c(c1)CC1Cc3cc(OC)c(OC)cc3CN1CC2 (stereo not given)" value_comparator=> readout_number=100
molecule="O=c1[nH]c(=O)n(C2OC(CO)C(N(O)Cc3ccc(F)cc3)C2O)cc1Br (stereo not given)" value_comparator=> readout_number=100
molecule="CC1=NC(C(=O)O)Cc2c1[nH]c1ccccc21 (stereo not given)" value_comparator=> readout_number=100
molecule=CN(C)CCNC(=O)c1ccc(Cl)c2c(Nc3ccc(S(=O)(=O)N=C(N)N)cc3)c3ccccc3nc12 value_comparator== readout_number=3.79
molecule=Cc1ccnc(NS(=O)(=O)c2ccc(NC3=CC(=O)C(=O)c4ccccc43)cc2)n1 value_comparator=> readout_number=100
molecule="CCOC(=O)[C@@H]1C2C(=C[C@H]3[C@H]1C(=O)N1CCCC[C@H]31)CCCN2C(=O)OCc1ccccc1 (stereo not given in full)" value_comparator== readout_number=45.2
molecule=Cc1sccc1C(=S)Nc1ccc(Cl)c(/C=N/OC(C)(C)C)c1 value_comparator== readout_number=26.5
molecule="O=C(Nc1cccc(C(F)(F)F)c1)C(=O)C(C(=O)c1ccc2ccccc2c1)C1OC(=O)c2ccccc21 (stereo not given)" value_comparator== readout_number=25.6
molecule=CC(=O)Nc1ccc(-c2csc(Nc3ccc(-c4csc(-c5ccccc5)n4)cc3)n2)cc1 value_comparator== readout_number=41.5
molecule=CC#Cc1nc2ccccc2c(=O)[nH]1 value_comparator== readout_number=16.7
molecule="C[C@]12CCc3nonc3C1CC[C@@H]1C2CC[C@]2(C)C(=O)CCC12 (stereo not given in full)" value_comparator== readout_number=72.2
molecule=CCOC(=O)c1cc(C(=O)c2ccc(Cl)cc2)n2ccc(-c3cc[n+](CC(=O)c4ccc(OC)cc4)cc3)cc12 value_comparator== readout_number=3.89
molecule=O=C1CNc2cc(N3CCN(c4ccccc4)CC3)ccc2N1 value_comparator=> readout_number=100
molecule=CN(CCNC(=O)c1[nH]nc2c1Cc1ccccc1-2)CCNC(=O)c1[nH]nc2c1Cc1ccccc1-2 value_comparator== readout_number=33.4
molecule=Cc1c(NC(=O)c2cc(C(N)=O)nc3cc(F)ccc23)c(C(F)(F)F)nn1Cc1ccc(C#N)cc1 value_comparator=> readout_number=64.4
molecule=CC(C)(C)N=Cc1ccccc1[O-].CC(C)(C)N=Cc1ccccc1[O-].[Co+2] value_comparator=> readout_number=100
molecule=COc1cc(C(=O)/C=C/c2c(-c3cccs3)nc3sc(C)cn23)cc(OC)c1OC value_comparator== readout_number=4.57
molecule=O=C1C=CC(=O)c2c(O)c(CO)c(CO)c(O)c21 value_comparator== readout_number=0.239
molecule=O=c1c2cc(I)ccc2nc(-c2cccs2)n1-c1ccc(S(=O)(=O)Nc2nccs2)cc1 value_comparator== readout_number=76
molecule="N#CCCC(CC#N)N1CCN(C(CC#N)CCC#N)CC1 (stereo not given)" value_comparator=> readout_number=100
